Recorded values, source patent US20100273203A1.

experimentSummary: LC-MS/MS urinary metabolic profile of patients receiving warfarin
conditionNotes: patient F84; urine; free and conjugated
Protocol: All chemicals used in this study were of at least reagent grade. Unless otherwise specified, all chemicals and reagents were purchased from either Sigma-Aldrich (St. Louis, Mo.) or Thermo Fisher Scientific (Waltham, Mass.). […] Each response was normalized to that of the internal standard, 7-hydroxycoumarin (10 μM). […] Glucuronidated metabolites were measured by incubating 250 μL of urine with 2000 units of GUS in 100 mM sodium acetate buffer, pH 5.0. […]
readout: urinary concentration (nM)

1) CC(=O)CC(c1ccccc1)c1c(O)c2cc(O)ccc2oc1=O (stereo not shown) [6-OH-WAR, 6-hydroxywarfarin]; 560
2) CC(=O)CC(c1ccccc1)c1c(O)c2cccc(O)c2oc1=O (stereo not shown) [8-OH-WAR, 8-hydroxywarfarin]; 111
3) CC(=O)CC(c1ccccc1)c1c(O)c2ccc(O)cc2oc1=O (stereo not shown) [7-OH-WAR, 7-hydroxywarfarin]; 1964
4) CC(=O)CC(c1ccc(O)cc1)c1c(O)c2ccccc2oc1=O (stereo not shown) [4′-OH-WAR, 4′-hydroxywarfarin]; 140
